Tested on: Salmonella typhimurium Ames mutagenicity, literature compiled
Test: DSSTox (CPDBAS) Carcinogenic Potency Database Salmonella Mutagenicity
Source text: The Carcinogenic Potency Database (CPDB) is a unique and widely used international resource of the results of over 6500 chronic, long-term animal cancer tests on over 1500 chemical substances. The CPDB provides easy access to the bioassay literature, with qualitative and quantitative analyses of both positive and negative experiments that have been published over the past 50 years in the general literature and by the National Cancer Institute/National Toxicology Program. […]
The source made the active and inactive calls.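 The calls were made as follows: active = chemicals rated mutagenic or weakly mutagenic in the Salmonella bacterial test by one literature review, or positive overall by another; inconclusive = no clear call, values can overlap the other calls; inactive = the rest.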
Respond only with the outcome that fits, drawn from label 1 (active), label 0 (inactive)

CC=O ... label 0
O=P(O)(O)O ... label 1
O=C(O)C1[O][Sb]2[O]C(=O)C([O]2)C(C(=O)O)[O][Sb]2[O]C(=O)C1[O]2 (stereo unspecified) ... label 0
Cc1cc2ncccc2c2nc(N)n(C)c12 ... label 1
Cc1ccc(N)cc1 ... label 1
S=[Se] ... label 1
COc1ccc([N+](=O)[O-])cc1N ... label 1
Nc1ccc(Nc2ccccc2)cc1 ... label 0

INPUT: Status in this test for CCOC(=O)N(C)N=O ?
OUTPUT: label 1

INPUT: Check the results log: what was the call for S=P(N1CC1)(N1CC1)N1CC1 ?
OUTPUT: label 1

INPUT: Each compound tested received a call. Report the one for COc1ccc(C)cc1N .
OUTPUT: label 1

INPUT: Called result for O=NN(CCO)CCO
OUTPUT: label 1

INPUT: Per the records of this test, what outcome belongs to CC(N)=S ?
OUTPUT: label 0

----------
test system: Salmonella typhimurium Ames mutagenicity, literature compiled; test: DSSTox (CPDBAS) Carcinogenic Potency Database Salmonella Mutagenicity
Active and inactive are the calls of the source.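 Rule for the calls: active = chemicals rated mutagenic or weakly mutagenic in the Salmonella bacterial test by one literature review, or positive overall by another; inconclusive = no clear call, values can overlap the other calls; inactive = the rest.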
Write down the outcome that applies. Available outcomes: active, inactive

Look over these answered cases.
CN(CCc1ccccc1)N=O ... active
N=C1C=CC(=C(c2ccc(N)cc2)c2ccc(N)cc2)C=C1 ... active
N[C@@H](Cc1ccc(N(CCCl)CCCl)cc1)C(=O)O ... active
C=CC(=C)C ... inactive
Nc1cc(S(=O)(=O)[O-])cc2cc(S(=O)(=O)[O-])c(N=Nc3ccc(-c4ccc(N=Nc5c(S(=O)(=O)[O-])cc6cc(S(=O)(=O)[O-])cc(N)c6c5O)c(O)c4)cc3O)c(O)c12.[Cu].[Cu].[Na+].[Na+].[Na+].[Na+] ... inactive

INPUT: Hello, I am checking results. What call was entered for C=CF ?
OUTPUT: active

INPUT: For C=C1C(CCl)(CCl)C2(Cl)C(Cl)C(Cl)C1(Cl)C2(Cl)Cl (stereo not drawn) , which call appears in the assay record?
OUTPUT: active

INPUT: For O=Nc1ccc(Nc2ccccc2)cc1 , what call appears in the results of this test?
OUTPUT: active

INPUT: Call for entry O=C(O)Cc1c[nH]c2ccccc12 :
OUTPUT: inactive

INPUT: I'd appreciate the recorded outcome for Cc1c(N)cccc1N from this test.
OUTPUT: active

----------
test system: Salmonella typhimurium Ames mutagenicity, literature compiled; assay: DSSTox (CPDBAS) Carcinogenic Potency Database Salmonella Mutagenicity
Calls of active or inactive are those of the source.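 How the source made its calls: active means chemicals rated mutagenic or weakly mutagenic in the Salmonella bacterial test by one literature review, or positive overall by another; inconclusive means no clear call, values can overlap the other calls; inactive means the rest.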
Choose one outcome from this list and give only that: y (active), n (inactive)

Below are worked cases with known answers.
COc1ccccc1[N+](=O)[O-] ... y
CC(C)CCCCCCOC(=O)c1ccccc1C(=O)OCCCCCCC(C)C ... n
C[C@H]1CCCC(=O)CCC/C=C/c2cc(O)cc(O)c2C(=O)O1 ... n

Attention now shifts to the item below.
INPUT: Look up the recorded call for COc1ccc(C(c2ccc(OC)cc2)C(Cl)(Cl)Cl)cc1 in this test.
OUTPUT: n
